B1: Pistol ribozyme (parent)
chain: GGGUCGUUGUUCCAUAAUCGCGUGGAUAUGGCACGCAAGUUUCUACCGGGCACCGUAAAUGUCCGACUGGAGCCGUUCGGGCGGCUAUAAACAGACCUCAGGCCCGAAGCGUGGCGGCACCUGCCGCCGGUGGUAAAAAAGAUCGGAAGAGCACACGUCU

variants of: B1; test: aptazyme ON/OFF ratio, guanine; higher = stronger switching; co-transcriptional cleavage with and without guanine
EXPERIMENTAL READOUT: aptazyme ON/OFF ratio

INSERT INTO assay_data (mutant_label, experimental_readout, result_number) VALUES
  ('G9C U10A U11C C13A', 'aptazyme ON/OFF ratio', 1.09),
  ('U8A G9A C13U', 'aptazyme ON/OFF ratio', 1.23),
  ('G9C U10G U11C C12G', 'aptazyme ON/OFF ratio', 1.17),
  ('U7G U8A G9U U11G C12U', 'aptazyme ON/OFF ratio', 1.23),
  ('U7A U8C U11G C12A', 'aptazyme ON/OFF ratio', 1.19),
  ('U7A U10G U11G C13A', 'aptazyme ON/OFF ratio', 1.12),
  ('U7G U8A G9C U10G C12A C13A', 'aptazyme ON/OFF ratio', 1.06),
  ('U8C G9C U10G U11G C12U C13G', 'aptazyme ON/OFF ratio', 1.13),
  ('U7A U8A G9A U10C U11C C12A C13A', 'aptazyme ON/OFF ratio', 1.12),
  ('U8G G9U U10A U11G C12U C13A', 'aptazyme ON/OFF ratio', 1.05),
  ('U7G G9U C13A', 'aptazyme ON/OFF ratio', 1.38),
  ('U7A U8C G9A U11A C12U C13A', 'aptazyme ON/OFF ratio', 1.25),
  ('U7C G9C U10A C12A C13G', 'aptazyme ON/OFF ratio', 1.09),
  ('U7G U8G U10G U11G C12A C13U', 'aptazyme ON/OFF ratio', 1.33),
  ('U7A U8A G9C U10A U11G C12A C13G', 'aptazyme ON/OFF ratio', 1.18),
  ('U7C U8C U10A U11A C12G', 'aptazyme ON/OFF ratio', 1.24),
  ('U7A U10C U11G C13U', 'aptazyme ON/OFF ratio', 1.17),
  ('U10C U11C C12U C13G', 'aptazyme ON/OFF ratio', 1.06),
  ('U7C U8A G9U U10G U11G', 'aptazyme ON/OFF ratio', 1.08),
  ('U7G U8G G9U U10G U11G C12U C13A', 'aptazyme ON/OFF ratio', 1.11),
  ('U8C G9C U10A U11A C12A C13A', 'aptazyme ON/OFF ratio', 1.07),
  ('U7A U8A G9U U10C C12U C13A', 'aptazyme ON/OFF ratio', 1.19),
  ('U7G U8G G9C U11C', 'aptazyme ON/OFF ratio', 2.07),
  ('U7G G9A U10C C13A', 'aptazyme ON/OFF ratio', 1.11),
  ('U7G U10C U11A C12A', 'aptazyme ON/OFF ratio', 1.18),
  ('U7G U8C G9C U11A C12U C13G', 'aptazyme ON/OFF ratio', 1.13),
  ('G9C U10G U11C C12G C13A', 'aptazyme ON/OFF ratio', 1.17),
  ('U7C U8G G9C U10C U11C C12G C13G', 'aptazyme ON/OFF ratio', 1.08),
  ('U7C U8C G9A U10G U11C C12A C13G', 'aptazyme ON/OFF ratio', 1.07),
  ('U8C G9C U11G C12A C13A', 'aptazyme ON/OFF ratio', 1.09),
  ('U7C G9C U10C U11G C12A C13U', 'aptazyme ON/OFF ratio', 1.04);
